Data credit: patent US12440484B2

Catalogue of IC50 values
# TGT: HDAC6 human recombinant (Homo sapiens (Human))
# Sequence (Q9UBN7 whole entry): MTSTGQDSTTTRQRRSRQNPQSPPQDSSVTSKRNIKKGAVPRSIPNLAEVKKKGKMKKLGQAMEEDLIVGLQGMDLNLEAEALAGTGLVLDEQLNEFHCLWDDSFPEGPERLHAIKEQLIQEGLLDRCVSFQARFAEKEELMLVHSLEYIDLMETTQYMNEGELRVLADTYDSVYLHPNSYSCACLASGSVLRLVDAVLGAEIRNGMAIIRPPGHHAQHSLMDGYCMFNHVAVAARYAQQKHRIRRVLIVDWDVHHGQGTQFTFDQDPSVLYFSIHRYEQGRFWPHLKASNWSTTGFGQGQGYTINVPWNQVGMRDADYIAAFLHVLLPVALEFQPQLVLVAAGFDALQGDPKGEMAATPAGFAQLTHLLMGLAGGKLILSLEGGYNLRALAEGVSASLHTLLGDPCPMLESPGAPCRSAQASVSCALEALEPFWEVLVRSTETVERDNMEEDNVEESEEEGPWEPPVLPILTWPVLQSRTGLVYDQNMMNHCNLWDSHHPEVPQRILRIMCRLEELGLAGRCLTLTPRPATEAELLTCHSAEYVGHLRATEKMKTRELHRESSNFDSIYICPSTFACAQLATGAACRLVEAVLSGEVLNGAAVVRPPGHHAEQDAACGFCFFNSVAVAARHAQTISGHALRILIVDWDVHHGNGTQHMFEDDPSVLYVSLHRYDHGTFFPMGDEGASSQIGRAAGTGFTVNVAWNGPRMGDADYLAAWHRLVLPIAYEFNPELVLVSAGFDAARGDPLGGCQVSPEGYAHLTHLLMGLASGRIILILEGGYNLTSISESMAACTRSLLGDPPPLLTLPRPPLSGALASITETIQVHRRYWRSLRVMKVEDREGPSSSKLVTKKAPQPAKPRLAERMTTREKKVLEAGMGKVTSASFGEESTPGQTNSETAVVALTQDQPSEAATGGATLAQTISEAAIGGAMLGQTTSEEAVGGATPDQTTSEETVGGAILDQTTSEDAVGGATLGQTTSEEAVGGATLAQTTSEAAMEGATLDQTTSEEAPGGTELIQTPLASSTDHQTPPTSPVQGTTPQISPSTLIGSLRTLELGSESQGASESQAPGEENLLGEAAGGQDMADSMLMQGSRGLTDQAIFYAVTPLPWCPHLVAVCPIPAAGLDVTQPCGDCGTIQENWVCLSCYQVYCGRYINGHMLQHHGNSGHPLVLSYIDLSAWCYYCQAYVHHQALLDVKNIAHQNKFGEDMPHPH
# METHOD SUMMARY: HDAC enzyme activity inhibition (in vitro), HDAC6 assay
# STUDY CONDITIONS: samples at 0.1, 1, 10, 100 and 1000 nM; 37° C. 60 minutes; fluorescence Ex 390, Em 460
Enter your answer as a number in nM; do not include the unit.

The cases that follow already have their IC50 on record.
{"COMPOUND": "Cc1ccc(-c2cccc3c2C(=O)N(Cc2ccc(-c4nnc(C(F)F)o4)cn2)C(=O)C3(C)C)o1", "TGT": "HDAC6 human recombinant (Homo sapiens (Human))", "ENDPOINT NAME": "IC50", "READOUT VALUE": 143}
{"COMPOUND": "CC1(C)C(=O)N(Cc2ccc(-c3nnc(C(F)F)o3)cn2)C(=O)c2cc(C3CCN(C4CCOC4)CC3)ccc21 (stereo not shown)", "TGT": "HDAC6 human recombinant (Homo sapiens (Human))", "ENDPOINT NAME": "IC50", "READOUT VALUE": 58}
{"COMPOUND": "COc1ccc(Cn2c(=O)n(Cc3ccc(-c4nnc(C(F)F)o4)cn3)c(=O)c3cc(F)ccc32)cc1", "TGT": "HDAC6 human recombinant (Homo sapiens (Human))", "ENDPOINT NAME": "IC50", "READOUT VALUE": 216}
{"COMPOUND": "O=C1c2ccccc2C2(CCC2)C(=O)N1Cc1ccc(-c2nnc(C(F)F)o2)cc1F", "TGT": "HDAC6 human recombinant (Homo sapiens (Human))", "ENDPOINT NAME": "IC50", "READOUT VALUE": 318}
{"COMPOUND": "O=c1c2ccccc2n(CCn2cccn2)c(=O)n1Cc1ccc(-c2nnc(C(F)F)o2)cn1", "TGT": "HDAC6 human recombinant (Homo sapiens (Human))", "ENDPOINT NAME": "IC50", "READOUT VALUE": 273}
{"COMPOUND": "CC(C)CN1CCN(c2ccc3c(c2)C(=O)N(Cc2ccc(-c4nnc(C(F)F)o4)cn2)C(=O)C3(C)C)CC1", "TGT": "HDAC6 human recombinant (Homo sapiens (Human))", "ENDPOINT NAME": "IC50", "READOUT VALUE": 62}

From here, focus on the item given below.
Enquiry: Reported IC50, compound Cc1noc(C)c1-c1cccc2c1C(=O)N(Cc1ccc(-c3nnc(C(F)F)o3)cn1)C(=O)C2(C)C : ____
Return: 88

---

# TGT: HDAC6 human recombinant (Homo sapiens (Human))
# METHOD SUMMARY: HDAC enzyme activity inhibition (in vitro), HDAC6 assay
# STUDY CONDITIONS: samples at 0.1, 1, 10, 100 and 1000 nM; 37° C. 60 minutes; fluorescence Ex 390, Em 460
pIC50: −log10 of the molar value.
I would appreciate it if you labelled entries Condition met when pIC50 is 7 or higher, otherwise Condition not met.

The following molecules have reported results that may help.
{"SMILES TEXT": "CN(C)CCN(C)c1ccc2c(c1)C(C)(C)C(=O)N(Cc1ccc(-c3nnc(C(F)F)o3)cn1)C2=O", "CLASS": "Condition met"}
{"SMILES TEXT": "CC(C)(C)OC(=O)N1CC=C(c2ccc3c(c2)C(=O)N(Cc2ccc(-c4nnc(C(F)F)o4)cn2)C(=O)C3(C)C)CC1", "CLASS": "Condition not met"}
{"SMILES TEXT": "CCN1CCN(c2ccc3c(c2)C(=O)N(Cc2ccc(-c4nnc(C(F)F)o4)cn2)C(=O)C3(C)C)CC1", "CLASS": "Condition met"}
{"SMILES TEXT": "CC1(C)C(=O)N(Cc2ccc(-c3nnc(C(F)F)o3)cn2)C(=O)c2ccc(C3CCN(C4CC5(COC5)C4)CC3)cc21", "CLASS": "Condition met"}
{"SMILES TEXT": "CCC1(CC)C(=O)N(Cc2ccc(-c3nnc(C(F)F)o3)cn2)C(=O)c2ccc(N3CCN(C(C)=O)CC3)cc21", "CLASS": "Condition met"}

Pending molecule:
Enquiry: Hello, I need to know if CC(C)N1CC=C(c2ccc3c(=O)n(Cc4ccc(-c5nnc(C(F)F)o5)cn4)c(=O)n(C)c3c2)CC1 has measured pIC50 not below 7. Thanks!
Return: Condition met
